- target_desc: Human SSAO/VAP-1 (Homo sapiens, UniProt Q16853)
- Sequence (Q16853 1-763): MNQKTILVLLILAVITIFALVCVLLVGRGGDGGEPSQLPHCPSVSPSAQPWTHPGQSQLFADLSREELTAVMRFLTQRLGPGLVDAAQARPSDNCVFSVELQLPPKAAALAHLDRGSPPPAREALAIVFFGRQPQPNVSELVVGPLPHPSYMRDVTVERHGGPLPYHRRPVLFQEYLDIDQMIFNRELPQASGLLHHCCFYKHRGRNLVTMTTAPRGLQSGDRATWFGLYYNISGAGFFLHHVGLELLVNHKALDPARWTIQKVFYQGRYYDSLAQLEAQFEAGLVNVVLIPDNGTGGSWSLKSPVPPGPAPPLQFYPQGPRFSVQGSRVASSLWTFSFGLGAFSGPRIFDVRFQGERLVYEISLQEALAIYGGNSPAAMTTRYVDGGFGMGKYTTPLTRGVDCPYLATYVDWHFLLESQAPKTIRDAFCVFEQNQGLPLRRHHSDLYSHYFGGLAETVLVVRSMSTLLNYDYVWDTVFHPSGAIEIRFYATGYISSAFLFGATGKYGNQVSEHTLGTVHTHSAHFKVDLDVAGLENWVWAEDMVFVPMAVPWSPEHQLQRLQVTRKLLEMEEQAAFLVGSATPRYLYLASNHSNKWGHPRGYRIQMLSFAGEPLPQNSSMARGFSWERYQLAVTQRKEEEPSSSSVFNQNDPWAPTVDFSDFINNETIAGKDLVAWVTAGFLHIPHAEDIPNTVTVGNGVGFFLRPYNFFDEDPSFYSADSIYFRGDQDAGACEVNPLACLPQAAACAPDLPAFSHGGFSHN
- assay_name: Inhibition of amine oxidase activity of purified human SSAO/VAP-1 (Amplex Red)
- Assay type: biochemical
- stated_conditions: purified human SSAO, 30 min at 37° C. preincubation, 300 μM benzylamine
Structures can show the parent of a compound that is named as a salt.
measurement_label: IC50

compound	measurement_label	value_reported
Cc1nc2cc(OC/C(F)=C\CN)ccc2s1.Cl [hydrochloride]	IC50	< 1000 nM
NC/C=C(/F)COc1ccc(C(=O)NC2CCCCC2)cc1 [hydrochloride]	IC50	< 1000 nM
NC/C=C(\Cl)Cc1cc(F)cc(F)c1 [hydrochloride, reference compound]	IC50	< 10000 nM
NC/C=C(/F)COc1ccc(C(=O)NCc2ccccc2)cc1 [hydrochloride]	IC50	< 1000 nM
CS(=O)(=O)c1ccc(OC/C(F)=C\CN)cc1.Cl [hydrochloride]	IC50	< 1000 nM
NC/C=C(/F)COc1ccc(Cl)cc1Cl [hydrochloride]	IC50	< 1000 nM
CC(C)N(C(=O)c1ccc(OC/C(F)=C\CN)cc1)C(C)C [hydrochloride]	IC50	< 1000 nM
NC/C=C(\Cl)CCc1ccccc1 [hydrochloride, reference compound]	IC50	< 10000 nM
NC/C=C(/F)COc1ccc([N+](=O)[O-])cc1 [hydrochloride]	IC50	< 1000 nM
NC/C=C(/F)COc1cccc(C(F)(F)F)c1 [hydrochloride]	IC50	< 1000 nM
C[C@H](NS(=O)(=O)c1ccc(OC/C(F)=C\CN)cc1)c1ccccc1.Cl	IC50	< 1000 nM
NC/C=C(/F)COc1ccccc1 [hydrochloride]	IC50	< 1000 nM
NC/C=C(/F)COc1ccc(S(=O)(=O)N2CCOCC2)cc1 [hydrochloride]	IC50	< 1000 nM
